- Test system: Staphylococcus aureus (MSSA)
- conditionSummary: 24 h
Starred links: 1 amine or outer side, 2 acyl side, 3 side chain; linkers in the order of their positions; H or OH if unused. Positions of bridges follow the written chain, without caps; N, C: chain ends. Non-standard residues stand in square brackets, D forms with d. Residues, ends and D or L forms follow the SMILES beside them. ξ: configuration not given here. *: point of attachment. ξAbu(βξ-NH2) = CC(N[*:3])C(N[*:1])C(=O)[*:2]; ξAsp(βξ-Me) = CC(C(=O)O)C(N)C(=O)O; X1 = O=C(Cc1ccc(N[*:1])cc1)[*:2]; Myristoyl = CCCCCCCCCCCCCC(=O)*; ξAbu(3ξ-NH2) = CC(N)C(N)C(=O)O; Pip = O=C(O)[CH]1CCCCN1
valueKind: MIC
The answer consists of two parts: a number and, after it, its unit.

Some entries whose results are on file:
molecule: CCCCCCCCCCCCCC(=O)Nc1ccc(CC(=O)NC(CC(=O)O)C(=O)NC2C(=O)N3CCCCC3C(=O)NC(C(C)C(=O)O)C(=O)NC(CC(=O)O)C(=O)NCC(=O)NC(CC(=O)O)C(=O)NCC(=O)NC(C(C)N)C(=O)NC(C(C)C)C(=O)N3CCCC3C(=O)NC2C)cc1 (stereo not drawn) [Compound 301, C14-(p-Apa)-Amphomycin] (Myristoyl-[X1]D[ξAbu(βξ-NH2)][Pip][ξAsp(βξ-Me)]DGDG[ξAbu(3ξ-NH2)]VP; lactam 3-C; configuration not given here)
testedSystem: Staphylococcus aureus (MSSA)
valueKind: MIC
value: 2 µg/mL
//
molecule: CCCCCCCCCCCCCCC(=O)NC(CC(=O)O)C(=O)NC1C(=O)N2CCCCC2C(=O)NC(C(C)C(=O)O)C(=O)NC(CC(=O)O)C(=O)NCC(=O)NC(CC(=O)O)C(=O)NCC(=O)NC(C(C)NC(=O)CN(C)C(=O)[C@@H](N)CCCN)C(=O)NC(C(C)C)C(=O)N2CCCC2C(=O)NC1C (stereo partly drawn)
testedSystem: Staphylococcus aureus (MSSA)
valueKind: MIC
value: 4 µg/mL

Here's the next entry for you.
INPUT: Please look up its MIC: CCCCCCCCCCC(=O)Nc1ccc(C(=O)NC(CC(=O)O)C(=O)NC2C(=O)N3CCCCC3C(=O)NC(C(C)C(=O)O)C(=O)NC(CC(=O)O)C(=O)NCC(=O)NC(CC(=O)O)C(=O)NCC(=O)NC(C(C)N)C(=O)NC(C(C)C)C(=O)N3CCCC3C(=O)NC2C)cc1 (stereo not drawn)
OUTPUT: 16 µg/mL

====

- Test system: Staphylococcus aureus (MSSA)
- conditionSummary: 24 h
Starred links: 1 amine or outer side, 2 acyl side, 3 side chain; linkers in the order of their positions; H or OH if unused. Positions of bridges follow the written chain, without caps; N, C: chain ends. Non-standard residues stand in square brackets, D forms with d. Residues, ends and D or L forms follow the SMILES beside them. ξ: configuration not given here. *: point of attachment. ξAbu(βξ-NH2) = CC(N[*:3])C(N[*:1])C(=O)[*:2]; X39 = C=CC(=O)NC(C)C(N[*:1])C(=O)[*:2]; Pentadecanoyl = CCCCCCCCCCCCCCC(=O)*; ξAsp(βξ-Me) = CC(C(=O)O)C(N)C(=O)O; Pip = O=C(O)[CH]1CCCCN1
valueKind: MIC (µg/mL)
Numbers only, in µg/mL.

compound: C=CC(=O)NC(C)C1NC(=O)CNC(=O)C(CC(=O)O)NC(=O)CNC(=O)C(CC(=O)O)NC(=O)C(C(C)C(=O)O)NC(=O)C2CCCCN2C(=O)C(NC(=O)C(CC(=O)O)NC(=O)CCCCCCCCCCCCCC)C(C)NC(=O)C2CCCN2C(=O)C(C(C)C)NC1=O (stereo not drawn) [Compound 213, C15-Amphomycin-9-Acryl] (Pentadecanoyl-D[ξAbu(βξ-NH2)][Pip][ξAsp(βξ-Me)]DGDG[X39]VP; lactam 2-C; configuration not given here)
MIC [µg/mL]: 2

Moving on to another compound below.
INPUT: Tell me the measured MIC of CCCCCCCCCCCCCCC(=O)NC(CC(=O)O)C(=O)NC1C(=O)N2CCCCC2C(=O)NC(C(C)C(=O)O)C(=O)NC(CC(=O)O)C(=O)NCC(=O)NC(CC(=O)O)C(=O)NCC(=O)NC(C(C)NC(=O)CNC(=O)[C@@H](N)CCN)C(=O)NC(C(C)C)C(=O)N2CCCC2C(=O)NC1C (stereo partly drawn) [Compound 154, C15-Amphomycin-9-Gly-gDab] , please.
OUTPUT: 4
